# SYSTEM UNDER TEST: ErbB3 on rat Schwann cells (rat) (UniProt Q62799)
# Sequence (Q62799 20-1339): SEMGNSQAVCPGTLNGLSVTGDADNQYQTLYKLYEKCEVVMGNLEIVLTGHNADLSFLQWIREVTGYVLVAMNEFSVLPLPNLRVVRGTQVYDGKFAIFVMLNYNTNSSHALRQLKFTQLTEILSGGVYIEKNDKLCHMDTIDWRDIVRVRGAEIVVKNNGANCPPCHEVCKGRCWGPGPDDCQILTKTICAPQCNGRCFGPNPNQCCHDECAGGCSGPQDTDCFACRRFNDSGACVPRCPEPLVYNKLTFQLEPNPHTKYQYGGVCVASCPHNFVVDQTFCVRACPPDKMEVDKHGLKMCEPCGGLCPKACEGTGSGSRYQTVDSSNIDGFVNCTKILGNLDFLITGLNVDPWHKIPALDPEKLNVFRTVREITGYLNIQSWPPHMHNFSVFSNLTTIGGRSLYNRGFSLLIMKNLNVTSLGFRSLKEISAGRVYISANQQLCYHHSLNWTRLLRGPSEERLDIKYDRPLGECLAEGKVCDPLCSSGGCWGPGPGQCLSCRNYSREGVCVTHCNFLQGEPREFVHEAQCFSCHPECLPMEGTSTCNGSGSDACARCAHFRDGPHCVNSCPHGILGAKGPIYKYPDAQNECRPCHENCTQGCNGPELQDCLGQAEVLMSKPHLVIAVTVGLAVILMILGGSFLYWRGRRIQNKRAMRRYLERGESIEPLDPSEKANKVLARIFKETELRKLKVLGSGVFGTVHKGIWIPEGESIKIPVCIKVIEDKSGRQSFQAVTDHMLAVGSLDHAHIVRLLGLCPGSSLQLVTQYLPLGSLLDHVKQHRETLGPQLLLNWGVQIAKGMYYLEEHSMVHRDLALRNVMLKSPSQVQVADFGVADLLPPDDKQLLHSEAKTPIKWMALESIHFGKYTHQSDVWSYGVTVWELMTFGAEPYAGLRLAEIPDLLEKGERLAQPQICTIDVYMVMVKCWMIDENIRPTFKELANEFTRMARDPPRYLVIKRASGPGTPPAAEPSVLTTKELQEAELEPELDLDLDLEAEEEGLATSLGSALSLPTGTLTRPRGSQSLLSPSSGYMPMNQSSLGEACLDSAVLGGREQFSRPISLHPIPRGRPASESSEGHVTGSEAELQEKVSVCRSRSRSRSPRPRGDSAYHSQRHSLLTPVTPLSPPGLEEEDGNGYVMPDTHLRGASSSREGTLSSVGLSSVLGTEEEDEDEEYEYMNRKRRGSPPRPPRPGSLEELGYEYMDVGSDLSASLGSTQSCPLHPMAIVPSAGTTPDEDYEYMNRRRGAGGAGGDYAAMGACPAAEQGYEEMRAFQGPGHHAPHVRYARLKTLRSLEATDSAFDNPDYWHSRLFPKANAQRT
# PROTOCOL: cell-based or functional assay
Listed below: Schwann cells (SC) (ErbB3) Avg EC50 values for each entry.

huNRG1(S177-Q237)(NRGE1B)::GG::huFcSEFL2 (Pb) (Fc fusion) SHLVKCGENDKSFCVNGGECYMVEGSSIPSRYLCKCPNEFTGDRCQEDFMASFYKAEELYQGGDKTHTCPPCPAPELLGGPSVFLFPPKPKDTLMISRTPEVTCVVVDVSHEDPEVKFNWYVDGVEVHNAKTKPCEEQYGSTYRCVSVLTVLHQDWLNGKEYKCKVSNKALPAPIEKTISKAKGQPREPQVYTLPPSREEMTKNQVSLTCLVKGFYPSDIAVEWESNGQPENNYKTTPPVLDSDGSFFLYSKLTVDKSRWQQGNVFSCSVMHEALHNHYTQKSLSLSPGK: > 10 µM

According to the records, this binder huNRG1(S177-Q237)(1D10)::GG::huFcSEFL2 (Pb) (Fc fusion) SHLVKCAERDKTFCVNGGECYMIEDLSIPSRYLCKCPNEFTGDRCQKDFMASFYKAEELYQGGDKTHTCPPCPAPELLGGPSVFLFPPKPKDTLMISRTPEVTCVVVDVSHEDPEVKFNWYVDGVEVHNAKTKPCEEQYGSTYRCVSVLTVLHQDWLNGKEYKCKVSNKALPAPIEKTISKAKGQPREPQVYTLPPSREEMTKNQVSLTCLVKGFYPSDIAVEWESNGQPENNYKTTPPVLDSDGSFFLYSKLTVDKSRWQQGNVFSCSVMHEALHNHYTQKSLSLSPGK displays Schwann cells (SC) (ErbB3) Avg EC50 of > 3 µM
